# Test description: Oral bioavailability in Sprague-Dawley rat at 3 mg/kg by LC-MS/MS analysis
# Format: ADME, organism-based
# Conditions: in vivo
Experimental readout: bioavailability (%)
Numeric answer only, unit % assumed.

[ask] Report bioavailability for C=C[C@@H]1C[C@]1(NC(=O)[C@@H]1C[C@@H](Oc2cc(-c3csc(NC(=O)C(C)C)n3)nc3c(Br)c(OC)ccc23)CN1C(=O)[C@@H](NC(=O)OC1CCCC1)C(C)(C)C)C(=O)O please.
[reply] 40

* * *

# Test description: AUC in Beagle dog at 5 mg/kg, po measured upto 24 hrs by LC/MS-MS analysis
# Assay type: ADME, organism-based, Canis lupus familiaris
# Conditions: in vivo
Experimental readout: AUC (µM·h)
Numeric answer only, unit µM·h assumed.

[ask] Report AUC for C=C[C@@H]1C[C@]1(NC(=O)[C@@H]1C[C@@H](Oc2cc(-c3csc(NC(=O)C(C)C)n3)nc3c(Br)c(OC)ccc23)CN1C(=O)[C@@H](NC(=O)OC1CCCC1)C(C)(C)C)C(=O)O please.
[reply] 13

* * *

Please go through the items and note down their clearance.
# Test description: Clearance in Sprague-Dawley rat at 2 mg/kg, iv by LC-MS/MS analysis
# Assay type: ADME, organism-based
# Conditions: in vivo
Numeric answer only, unit mL/min/kg assumed.

[ask] Report clearance for CCC[C@H](NC(=O)[C@@H]1[C@H]2CCC[C@H]2CN1C(=O)[C@@H](NC(=O)[C@@H](NC(=O)c1cnccn1)C1CCCCC1)C(C)(C)C)C(=O)C(=O)NC1CC1 please.
[reply] 54

[ask] Can you handle C=C[C@@H]1C[C@]1(NC(=O)[C@@H]1C[C@@H]2CN1C(=O)[C@H](C1CCCC1)NC(=O)O[C@@H]1CCC[C@H]1CCCCCn1c(nc3cc(OC)ccc3c1=O)O2)C(=O)NS(=O)(=O)C1(C)CC1 [MK-2748] next?
[reply] 88

[ask] Can you handle COc1ccc2nc3c(nc2c1)O[C@@H]1CC2C(=O)N[C@]4(C(=O)NS(=O)(=O)C5(C)CC5)C[C@@H]4/C=C/CCCCC[C@H](NC(=O)O[C@@H]4CCC[C@H]4CCCCC3)C(=O)N2C1 (stereo partly drawn) next?
[reply] 33

* * *

Please go through the items and note down their pIC50.
# Tested system: Non-structural protein 4b (Hepacivirus hominis, UniProt F5B4I0)
# Sequence (F5B4I0 whole entry): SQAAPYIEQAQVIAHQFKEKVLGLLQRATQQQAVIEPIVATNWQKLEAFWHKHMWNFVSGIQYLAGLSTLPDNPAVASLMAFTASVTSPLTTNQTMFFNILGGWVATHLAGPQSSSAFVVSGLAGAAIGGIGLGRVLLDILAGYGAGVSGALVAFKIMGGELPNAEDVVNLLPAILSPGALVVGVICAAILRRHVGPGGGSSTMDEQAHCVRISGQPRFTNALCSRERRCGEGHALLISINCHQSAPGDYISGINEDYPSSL
# Test description: Inhibition of Hepatitis C virus genotype 1a NS4B
Entry type: numeric. Quantity: pIC50, the -log10 of concentration in molar units.

[ask] Report pIC50 for CC(C)Oc1ccc(-c2nc(O[C@@H]3C[C@H]4C(=O)N[C@]5(C(=O)NS(=O)(=O)C6(C)CC6)C[C@H]5/C=C\CCCCC[C@H](NC(=O)OC5CCCC5)C(=O)N4C3)c3oc4ccccc4c3n2)cc1 please.
[reply] 9.22

[ask] Can you handle C=C[C@@H]1C[C@]1(NC(=O)[C@@H]1C[C@@H]2CN1C(=O)[C@H](C1CCCC1)NC(=O)O[C@@H]1CCC[C@H]1CCCCCn1c(nc3cc(OC)ccc3c1=O)O2)C(=O)NS(=O)(=O)C1(C)CC1 next?
[reply] 11.05

[ask] Can you handle C=C[C@@H]1C[C@]1(NC(=O)[C@@H]1C[C@@H](Oc2ncc(OC)c3ccccc23)CN1C(=O)[C@@H](NC(=O)OC(C)(C)C)C(C)(C)C)C(=O)NS(=O)(=O)C1CC1 next?
[reply] 8.15

[ask] Can you handle C=C[C@@H]1C[C@]1(NC(=O)[C@@H]1C[C@@H](Oc2nccc3ccccc23)CN1C(=O)[C@@H](NC(=O)OC(C)(C)C)C(C)(C)C)C(=O)NS(=O)(=O)C1CC1 next?
[reply] 8.15
